Target: rat lens AR (RLAR) (Rattus norvegicus)
Construct: BLAR and RLAR were purified according to the method of Inagaki et al; from tissue; host or cells: rat (Wistar) lens
Assay: Aldose reductase (AR) activity assay, rat lens AR (NADPH oxidation, DL-glyceraldehyde substrate)
Format: biochemical
Conditions: purified RLAR; Table 2; read-out: IC50 (M) X 10^6 RLAR
Attribute Measured: IC50
Include the unit after the number when you answer.

1. COc1c(OC)c(OC)c2c(=O)cc(-c3ccc(O)c(O)c3)oc2c1OC [LARI]; 3e-08 M

Field: next compound
Specify reported IC50 for the compound shown: C[C@@H]1O[C@@H](Oc2c(-c3ccc(O)c(O)c3)oc3cc(O)cc(O)c3c2=O)[C@H](O)[C@H](O)[C@H]1O [quercitrin]
4.9e-07 M

Measured values drawn from patent EP0118571A1 for this set.
